# Tested on: A673/TR/shEF
# ASSAY_PROTOCOL: cell viability (LOESS-normalised, relative to median of negative controls) (log2 ratio); higher = more viable cells (less compound effect), active = hit call of the paper (over 3 MAD below the median)
# RUN_CONDITIONS: 25 µM; library screen: screen3; EWS-FLI1 expression: low (doxycycline-induced shRNA knockdown); treatment time: 72 h
Among all 3,200 compounds or so, about 300 (9.4%) showed activity. The sample as a whole holds a higher share of actives than the screen did.
Parameter call: string, one of active, inactive

[
  {
    "COMPOUND": "Cc1ccncc1Nc1ncccc1C(=O)Nc1ccc(C2(C#N)CCCC2)cc1",
    "GROUP_LABEL": "inactive"
  },
  {
    "COMPOUND": "Cc1cn([C@@H]2C[C@@H](O)[C@H](CO)O2)c(=O)[nH]c1=O",
    "GROUP_LABEL": "inactive"
  },
  {
    "COMPOUND": "CN(C)CCCN1c2ccccc2Sc2ccc(Cl)cc21",
    "GROUP_LABEL": "inactive"
  },
  {
    "COMPOUND": "CCN(CC)CCNC(=O)c1c(C)[nH]c(/C=C2\\C(=O)Nc3ccc(F)cc32)c1C",
    "GROUP_LABEL": "active"
  },
  {
    "COMPOUND": "CCCCC1=NC2(CCCC2)C(=O)N1Cc1ccc(-c2ccccc2-c2nn[nH]n2)cc1",
    "GROUP_LABEL": "inactive"
  }
]

Please share the test call associated with Cc1ccc(NC(=O)c2ccc(CN3CCN(C)CC3)cc2)cc1Nc1nccc(-c2cccnc2)n1 .
inactive

Entry to check: Cc1ccc(NC(=O)c2ccc(CN3CCN(C)CC3)cc2)cc1Nc1nc(-c2cccnc2)cs1
inactive

Entry to check: CCN(CC)CC(=O)Nc1c(C)cccc1C
inactive

Entry to check: Cc1cn(-c2cc(NC(=O)c3ccc(C)c(Nc4nccc(-c5cccnc5)n4)c3)cc(C(F)(F)F)c2)cn1
inactive

From: the supplement of paper PMC6089552
